molecular target: full-length recombinant rat vitamin D receptor (Rattus norvegicus); assay: biochemical
Sequence (P13053 whole entry): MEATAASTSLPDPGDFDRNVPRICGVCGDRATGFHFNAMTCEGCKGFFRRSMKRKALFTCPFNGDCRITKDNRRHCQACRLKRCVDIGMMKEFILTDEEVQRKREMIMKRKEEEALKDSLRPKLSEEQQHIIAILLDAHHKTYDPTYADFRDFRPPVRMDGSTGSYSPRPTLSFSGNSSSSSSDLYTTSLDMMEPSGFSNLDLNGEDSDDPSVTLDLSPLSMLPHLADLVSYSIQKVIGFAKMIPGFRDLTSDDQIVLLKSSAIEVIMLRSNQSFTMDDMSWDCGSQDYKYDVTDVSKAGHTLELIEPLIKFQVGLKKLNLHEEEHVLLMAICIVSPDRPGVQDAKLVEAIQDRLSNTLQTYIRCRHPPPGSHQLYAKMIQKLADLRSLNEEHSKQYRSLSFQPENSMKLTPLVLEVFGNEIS
measured_property: Ki (nM)
Answers are plain numbers, in nM.

Inquiry: Can you share its Ki? I mean this compound: C=C1/C(=C(C)\C=C2/CCC[C@@]3(C)C2CCC3[C@H](C)CCCC(C)(C)O)C[C@@H](O)C[C@@H]1O (stereo partly drawn) [Me-Cvit, 1α,25-dihydroxy-6-methylvitamin D3]
Reply text: 0.02
